B1: tRNA (parent)
chain: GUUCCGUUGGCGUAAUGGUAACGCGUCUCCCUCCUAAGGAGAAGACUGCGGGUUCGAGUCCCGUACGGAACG

Variants of: B1
TEST SUMMARY: yeast fitness relative to wild type (ratio to wild type); higher = fitter; tRNA-Arg(CCU), competitive growth, 37 C, YPD
Fewer inactive variants are shown than the library holds.
MEASURE: yeast fitness

Given the variant U2G U7G U16C C24U C34U G50A U54C A65U , write its reported yeast fitness.
≤ 0.5

Retrieve yeast fitness measured for U16A C30G G50A C60A and print it.
0.547

Give the reported value of yeast fitness for this record: G17A C30A
0.71

Further cases:
Entry U13C C30A C31A needs its yeast fitness filled in; supply it.
0.532

Supply recorded yeast fitness for C4A C55G here.
0.55

Supply yeast fitness value. Item: U47C G48A
0.96

Name the recorded yeast fitness of the variant listed here: C5G A14U G18A A21U A42G G56C
≤ 0.5

Origin of measurements: the RNAGym collection of RNA variant scans (doi:10.1126/science.aae0568)
